biological target: human GHS-R 1a (Homo sapiens); test: In vitro intracellular calcium release assay using human GHS-R 1a transfected CHO cells; format: cell-based; design: expressed in transfected cells; host or cells: CHO-K1 Chinese hamster ovary cells (ATCC No. CCL-61), transient transfection by electroporation; conditions: intracellular calcium release, compound at 10^-6 M, relative to basal level (0%) and 1 μM ghrelin (100%)
Sequence (Q92847 whole entry): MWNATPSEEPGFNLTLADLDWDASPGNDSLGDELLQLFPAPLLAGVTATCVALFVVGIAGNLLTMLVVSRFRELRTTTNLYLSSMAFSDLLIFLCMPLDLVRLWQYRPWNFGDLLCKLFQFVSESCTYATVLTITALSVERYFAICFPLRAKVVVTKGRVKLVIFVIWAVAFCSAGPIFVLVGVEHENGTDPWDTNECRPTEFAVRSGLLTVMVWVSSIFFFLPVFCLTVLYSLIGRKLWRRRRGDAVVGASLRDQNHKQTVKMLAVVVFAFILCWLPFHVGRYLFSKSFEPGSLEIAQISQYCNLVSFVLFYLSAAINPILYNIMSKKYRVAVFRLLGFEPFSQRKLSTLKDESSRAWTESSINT
PROPERTY MEASURED: activation at 1 µM (%)
Answer in %, number only, no unit symbol.

Sample records with activation at 1 µM:
>  <COMPOUND>
O=C(N[C@H](Cc1c[nH]c2ccccc12)c1nnc(CCc2c[nH]c3ccccc23)n1Cc1cccc2ccccc12)[C@@H]1CCCN1

>  <UNIT TAG>
%

>  <activation at 1 µM>
100

$$$$
>  <COMPOUND>
COc1ccc(Cn2c(CCc3ccccc3)nnc2[C@@H](Cc2c[nH]c3ccccc23)NC(=O)C2CCOCC2)c(OC)c1

>  <UNIT TAG>
%

>  <activation at 1 µM>
3

$$$$
>  <COMPOUND>
O=C(N[C@H](Cc1c[nH]c2ccccc12)c1nnc(CCCc2c[nH]c3ccccc23)n1Cc1cccc2ccccc12)C1CCCN1 (stereo partly shown)

>  <UNIT TAG>
%

>  <activation at 1 µM>
100

$$$$
>  <COMPOUND>
O=C(N[C@H](Cc1c[nH]c2ccccc12)c1nnc(Cc2ccccc2)n1Cc1ccc(Cl)c(Cl)c1)C1CCOCC1

>  <UNIT TAG>
%

>  <activation at 1 µM>
0

$$$$

Challenge: What value of measured activation at 1 µM is listed for COc1ccc(Cn2c(CCc3ccccc3)nnc2[C@@H](Cc2c[nH]c3ccccc23)NC(=O)C2(N)CCNCC2)cc1 ?
Response given: 90

Challenge: What value of measured activation at 1 µM is listed for COc1ccc(Cn2c(CCc3cc4ccccc4[nH]3)nnc2[C@@H](Cc2c[nH]c3ccccc23)NC(=O)C2(N)CCNCC2)cc1 ?
Response given: 106

Challenge: What value of measured activation at 1 µM is listed for O=C(N[C@H](Cc1c[nH]c2ccccc12)c1nnc(CCCc2c[nH]c3ccccc23)n1Cc1ccccc1)c1ccccn1 ?
Response given: 0

Challenge: What value of measured activation at 1 µM is listed for O=C(N[C@H](Cc1c[nH]c2ccccc12)c1nnc(CCc2ccccc2)n1Cc1cccc2ccccc12)C1CCOCC1 ?
Response given: 0

The measurements presented in this section are drawn from patent US20090239877A1.
